Tested on: Mus musculus
Test: Toxicity in ip dosed C3H X DBA2 F1 hybrid mouse […] with mouse L1210 cells on day 0 and dosed once daily on days 1 to 5 measured after 50 days
Format: organism-based
Details: in vivo, 1200 h
measuredParameter: LD10 (mg/kg)
Numeric answer only, unit mg/kg assumed.

LD10 for `CCC[n+]1cc(-c2ccc(NC(=O)c3ccc(Nc4cc[n+](CCC)c5ccc(N)cc45)cc3N)cc2)c(N)nc1N.Cc1ccc(S(=O)(=O)[O-])cc1.Cc1ccc(S(=O)(=O)[O-])cc1` ?
50

For `CC[n+]1ccc(Nc2ccc(NC(=O)c3ccc(Nc4cc[n+](CC)c5ccc(N)cc45)cc3)cc2N)cc1.[I-].[I-]` , what is its reported LD10?
6.5

Fill in: LD10 of `CCC[n+]1cccc(-c2ccc(NC(=O)c3ccc(C(=O)Nc4ccc(-c5ccc(-c6ccc(-c7ccc[n+](CCC)c7)cc6)cc5)cc4)cc3)cc2)c1.Cc1ccc(S(=O)(=O)[O-])cc1.Cc1ccc(S(=O)(=O)[O-])cc1` is ___
59

Which LD10 reading was recorded for the molecule `CC[n+]1cccc2cc(NC(=O)COc3ccc(C(=O)Nc4ccc5c(ccc[n+]5CC)c4)cc3)ccc21.Cc1ccc(S(=O)(=O)[O-])cc1.Cc1ccc(S(=O)(=O)[O-])cc1` ?
4

Look up LD10 for this molecule: `CCC[n+]1ccc(Nc2ccc(NC(=O)c3ccc(Nc4cc[n+](CCC)c5ccc(N)cc45)cc3)cc2)cc1.[Br-].[Br-]`
10

Return reported LD10; argument: `C[n+]1cccc2cc(NC(=O)c3ccc(C(=O)Nc4ccc5c(ccc[n+]5C)c4)cc3)ccc21.Cc1ccc(S(=O)(=O)[O-])cc1.Cc1ccc(S(=O)(=O)[O-])cc1`
5
